Reference for the values: ChEMBL document CHEMBL5523694

Protocol text: Stability in dog whole blood assessed as half life by LC/MS/MS analysis
Type: ADME, tissue-based, Canis lupus familiaris
Property: half-life (h)
Answer in h, number only, no unit symbol.

{"Compound structure": "C=CC(=O)N1C[C@H](C)N(c2nc(N3CC(N(C)C)C3)nc3c(F)c(-c4c(C)ccc5cn[nH]c45)c(Cl)cc23)C[C@H]1C", "Readout unit": "h", "Reported measurement": 5.95}
{"Compound structure": "C=CC(=O)N1CCN(c2nc(OCCN3CC(F)(F)C3)nc3c(F)c(-c4c(O)cccc4F)c(Cl)cc23)CC1", "Readout unit": "h", "Reported measurement": 3}

Give the reported half-life for this compound. C=CC(=O)N1C[C@H](C)N(c2nc(OCCN3CC(F)(F)C3)nc3c(F)c(-c4c(O)cccc4F)c(Cl)cc23)C[C@H]1C
3
